Values were extracted from patent US20260116980A1.

# measuredTarget: T1, ECD of human 4Ig-B7H3 (Sinobiological, Cat: 11188-H08H) (human, UniProt Q5ZPR3 29-466)
# T1 construct: Bought protein; also called recombinant B7H3
# T1 sequence: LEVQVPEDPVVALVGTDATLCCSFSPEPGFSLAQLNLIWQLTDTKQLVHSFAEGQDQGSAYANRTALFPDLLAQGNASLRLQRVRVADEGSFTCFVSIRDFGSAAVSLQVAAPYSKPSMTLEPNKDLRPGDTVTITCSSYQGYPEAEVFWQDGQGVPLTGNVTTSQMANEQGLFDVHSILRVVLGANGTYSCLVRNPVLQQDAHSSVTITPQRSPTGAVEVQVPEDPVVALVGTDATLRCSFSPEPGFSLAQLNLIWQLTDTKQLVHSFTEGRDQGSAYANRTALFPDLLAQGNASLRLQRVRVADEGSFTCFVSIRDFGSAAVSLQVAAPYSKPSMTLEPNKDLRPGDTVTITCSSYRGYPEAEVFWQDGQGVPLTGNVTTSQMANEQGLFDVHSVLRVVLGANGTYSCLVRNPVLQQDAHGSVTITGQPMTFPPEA
# protocolNotes: SPR, antibody captured on anti-human Fc surface, Test 1

binder: BGA-4265 (BGA-3726 variant comprising G30A in LCDR1) (antibody, human IgG1, kappa, V domains shown) VH: QVQLQESGPGLVKPSGTLSLTCAVSGGSISTSNWWNWVRQSPGKGLEWIGEIYPTGNTNYSPSLKSRVTISIDKSKNQFSLKLNSVTAADTAVYYCARGWNWFDPWGQGTLVTVSS VL: EIVLTQSPGTLSLSPGERATLSCRTSQSINAILLAWYQQKPGQAPRLLIYGASSRATGIPDRFSGSGSGTDFTLSISRLEPEDFAVYYCQQYGSSPRTFGQGTKVEIKR
koff [s⁻¹]: 0.000128
